EXPERIMENTAL ENDPOINT: melting point (°C)
Please give a number only; it is taken to be in °C.

Solved entries:
CCOP(=O)(OCC)c1cc(F)ccc1CNC(=O)c1nc2n(c(=O)c1O)CCOC2(C)C	124
Cn1ccc(-c2cc(F)ccc2CNC(=O)c2nc3n(c(=O)c2O)CCOC3(C)C)n1	220
CC1OCCn2c1nc(C(=O)NCc1ccc(F)c(Cl)c1)c(O)c2=O (stereo not drawn)	172
Cc1cc(CNC(=O)c2nc3n(c(=O)c2O)CCOC3C)ccc1F (stereo not drawn)	134
COc1ncccc1-c1cc(F)ccc1CNC(=O)c1nc2n(c(=O)c1O)CCOC2(C)C	227

Proceed to the following item.
[in] What value of melting point has been reported for the following compound? CCC1OCCn2c1nc(C(=O)NCc1ccc(F)cc1-n1cnc(C)n1)c(O)c2=O (stereo not drawn)
[out] 213
